The reported numbers originate from ChEMBL document CHEMBL5634142.

# ASSAY_EXPLANATION: Selectivity index, ratio of CC50 for cytotoxicity against human HepG2 cells to EC50 for antiplasmodial activity against erythrocytic stage of chloroquine, pyrimethamine and sulfadoxine resistant Plasmodium falciparum K1 infected in human erythrocytes
# Format: toxicity, cell-based
# ASSAY_CONDITIONS: read-out: Ratio CC50/EC50
Attribute: selectivity ratio
QUANTITY_MEASURED: selectivity ratio

>>> result_number("[2H]C([2H])([2H])C(Nc1nc2cc(-c3ccc(C)cc3)sc2c(=O)[nH]1)(C([2H])([2H])[2H])C([2H])([2H])[2H]")
149
>>> result_number("C[C@H]1c2cccc(O)c2C(=O)C2=C(O)[C@]3(O)C(=O)C(C(N)=O)=C(O)[C@@H](N(C)C)[C@@H]3[C@@H](O)[C@@H]21 [DOXYCYCLINE ANHYDROUS]")
4
>>> result_number("CCn1c(NC(C)(C)C)nc2cc(-c3ccc(C)cc3)sc2c1=O")
1.4
>>> result_number("Cc1ccc(-c2cc3nc(NC4CC4)[nH]c(=O)c3s2)cc1")
4.4
>>> result_number("Cc1ccc(-c2cc3nc(NC4CCC4)[nH]c(=O)c3s2)cc1")
12.7
>>> result_number("Cc1ccc(-c2cc3nc(N)n(CCCN(C)C)c(=O)c3s2)cc1")
0.42

---

Documented CC50 at 72 h across a set of molecules
# ASSAY_EXPLANATION: Cytotoxicity against human HepG2 cells assessed as reduction in cell viability incubated for 72 hrs by MTT assay
# Format: toxicity, cell-based
QUANTITY_MEASURED: CC50 at 72 h (µM)

>>> result_number("CCn1c(NC(C)(C)C)nc2cc(-c3ccc(C)cc3)sc2c1=O")
5.8
>>> result_number("Cc1ccc(-c2cc3nc(N[C@H]4CCNC4)[nH]c(=O)c3s2)cc1")
13.2
>>> result_number("Cc1ccc(-c2cc3nc(NC(C)(C)C(F)(F)F)[nH]c(=O)c3s2)cc1")
23.9
>>> result_number("Cc1ccc(-c2cc3nc(NC4CC4)[nH]c(=O)c3s2)cc1")
4
>>> result_number("Cc1ccc(-c2cc3nc(N4CCOCC4)[nH]c(=O)c3s2)cc1")
3.6
>>> result_number("Cc1ccc(-c2cc3nc(N)n(CCCN(C)C)c(=O)c3s2)cc1")
4.1

---

# ASSAY_EXPLANATION: Stability in CD-1 mouse microsomes assessed as intrinsic clearance measured upto 40 mins in presence of NADP
# Assay type: ADME, Microsome
Could you label it Met if measured microsomal CLint is 100 µL/min/mg or higher, and Not met otherwise?

>>> class("Cc1ccc(-c2cc3nc(NC4CCC4)[nH]c(=O)c3s2)cc1")
"Not met"
>>> class("[2H]C([2H])([2H])C(Nc1nc2cc(-c3ccc(C)cc3)sc2c(=O)[nH]1)(C([2H])([2H])[2H])C([2H])([2H])[2H]")
"Met"
>>> class("Cc1ccc(-c2cc3nc(NC4CC4)[nH]c(=O)c3s2)cc1")
"Met"
>>> class("Cc1ccc(-c2cc3nc(NC(C)C)[nH]c(=O)c3s2)cc1")
"Met"
>>> class("[2H]C([2H])([2H])C(Nc1nc2cc(-c3ccc(C)cc3)sc2c(=O)[nH]1)C([2H])([2H])[2H]")
"Met"
>>> class("Cc1ccc(-c2cc3nc(NC4CCCC4)[nH]c(=O)c3s2)cc1")
"Not met"
